biological target: human GPR139 receptor (Homo sapiens, UniProt Q6DWJ6); construct: expressed in transfected cells; host or cells: T-REx-CHO (Thermo Fisher Scientific), doxycycline-induced; assay: Measurement of GPR139 Activation Via Calcium Signaling (FLIPR, T-REx-CHO cells); type: cell-based; details: T-REx-CHO cells stably expressing human GPR139, 11-point dose response, 10 μM maximum concentration, read-out: GPR139 Potency (pEC50) (converted)
Sequence (Q6DWJ6 whole entry): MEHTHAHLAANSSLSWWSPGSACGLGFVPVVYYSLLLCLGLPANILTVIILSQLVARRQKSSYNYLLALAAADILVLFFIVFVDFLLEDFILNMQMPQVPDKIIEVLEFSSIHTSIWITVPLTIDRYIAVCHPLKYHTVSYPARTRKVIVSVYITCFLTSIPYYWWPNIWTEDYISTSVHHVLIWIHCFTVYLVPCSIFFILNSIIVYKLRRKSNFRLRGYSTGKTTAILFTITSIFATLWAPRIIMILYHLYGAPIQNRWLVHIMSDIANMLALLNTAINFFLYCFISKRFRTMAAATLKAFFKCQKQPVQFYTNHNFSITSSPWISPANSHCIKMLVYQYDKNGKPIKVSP
I'd appreciate it if you marked entries 1 when EC50 is lower than 0.05 µM and -1 when it is not.

{"columns": ["molecule", "system", "category-label"],
 "data": [
  ["Cc1ccc([C@H](C)NC(=O)Cn2ncc3ncn(C)c3c2=O)cc1 [Example 138]", "human GPR139 receptor (Homo sapiens, UniProt Q6DWJ6)", -1],
  ["Cc1ccc([C@H](C)NC(=O)Cn2ncc3c(cnn3C3CC3)c2=O)cc1 [Example 91]", "human GPR139 receptor (Homo sapiens, UniProt Q6DWJ6)", -1],
  ["Cc1ccc([C@H](C)NC(=O)Cn2ncc3c(C4CC4)nn(C)c3c2=O)cc1F [Example 151]", "human GPR139 receptor (Homo sapiens, UniProt Q6DWJ6)", 1],
  ["COc1ccc([C@H](C)NC(=O)Cn2ncc3c(c(C)nn3C(C)C)c2=O)cc1 [Example 17]", "human GPR139 receptor (Homo sapiens, UniProt Q6DWJ6)", -1],
  ["COc1ccc([C@H](C)NC(=O)Cn2ncc3c(c(C)nn3C)c2=O)cc1 [Example 48]", "human GPR139 receptor (Homo sapiens, UniProt Q6DWJ6)", 1],
  ["Cc1ccc([C@H](C)NC(=O)Cn2ncc3c(c(C)cn3C3CC3)c2=O)cc1 [Example 147]", "human GPR139 receptor (Homo sapiens, UniProt Q6DWJ6)", 1],
  ["COc1cc(Cl)ccc1C[C@H](C)NC(=O)Cn1ncc2c(c(C)cn2C2CC2)c1=O [Example 67]", "human GPR139 receptor (Homo sapiens, UniProt Q6DWJ6)", -1],
  ["Cc1nn(C2CC2)c2cnn(CC(=O)N[C@@H](C)c3cccc(F)c3)c(=O)c12 [Example 25]", "human GPR139 receptor (Homo sapiens, UniProt Q6DWJ6)", 1],
  ["Cc1nn(C2CC2)c2cnn(CC(=O)N[C@@H](C)c3ccc(Cl)cc3F)c(=O)c12 [Example 24]", "human GPR139 receptor (Homo sapiens, UniProt Q6DWJ6)", 1],
  ["Cc1nn(C(C)(C)C)c2cnn(CC(=O)N[C@@H](C)c3ccc(C(F)(F)F)cc3)c(=O)c12 [Example 157]", "human GPR139 receptor (Homo sapiens, UniProt Q6DWJ6)", -1],
  ["Cc1ccc([C@H](C)NC(=O)Cn2ncc3c(c(C(F)(F)F)nn3C)c2=O)c(F)c1 [Example 170]", "human GPR139 receptor (Homo sapiens, UniProt Q6DWJ6)", -1],
  ["COc1ccc([C@H](C)NC(=O)Cn2ncc3c(c(C)nn3C3CC3)c2=O)c(F)c1 [Example 127]", "human GPR139 receptor (Homo sapiens, UniProt Q6DWJ6)", 1],
  ["COc1ccc([C@H](C)NC(=O)Cn2nc(C)c3cnn(-c4ccccc4)c3c2=O)cc1 [Example 2]", "human GPR139 receptor (Homo sapiens, UniProt Q6DWJ6)", -1],
  ["Cc1nn(CC(=O)N[C@@H](C)c2ccc(C(F)(F)F)cc2)c(=O)c2c1cnn2C [Example 40]", "human GPR139 receptor (Homo sapiens, UniProt Q6DWJ6)", 1],
  ["Cc1nn(CC(=O)N[C@@H](C)c2ccc(C(F)(F)F)cn2)c(=O)c2c1c(C)nn2C1CC1 [Example 101]", "human GPR139 receptor (Homo sapiens, UniProt Q6DWJ6)", -1]
]}
